Test system: HepG2
Measurement Protocol: GSK_TCMDC: Percent inhibition of human HepG2 cell line. Test compounds present at 10uM.
Format: functional
Metric Name: Inhibition (%)
Report only the number, with the unit % understood.

Query: Form field: reported Inhibition of COc1ccc(NC(=O)NC2CCN(CCCOc3ccnc4cc(Cl)ccc34)C2)cc1OC (centres undefined)
Result: 6

Query: Form field: reported Inhibition of "Cc1cc(=NN=Cc2ccccc2F)c2cccc(C)c2[nH]1"
Result: 7

Query: Form field: reported Inhibition of COCC(C)n1c(C)cc(C(=O)CSc2nnc(Nc3ccccc3)s2)c1C (centres undefined)
Result: 0

Query: Form field: reported Inhibition of "O=C(Nc1cccc(-c2cccc(-c3nc4ccccc4[nH]3)c2)c1)c1ccncc1"
Result: 27

Query: Form field: reported Inhibition of "O=C(O)C(F)(F)F.O=C(O)Cc1ccc(-c2c[nH]c3ncc(-c4cccc5ncccc45)cc23)cc1"
Result: 7

Query: Form field: reported Inhibition of "CCNc1cc(C)nc(Nc2ccc(NC(=O)c3ccc(OC)c(OC)c3)cc2)n1"
Result: 19

Query: Form field: reported Inhibition of Cc1ccc(C2(C)CC(C)(C)N(C(=O)COc3ccc4ccccc4c3)c3ccccc32)cc1 (centres undefined)
Result: 0

Query: Form field: reported Inhibition of "COc1c(O)cc2oc(-c3ccc(O)cc3)cc(=O)c2c1O"
Result: 6

Query: Form field: reported Inhibition of "COCCNCc1cccc(-c2ccc3c(Nc4ccc(Oc5cccnc5)cc4)ccnc3c2)c1"
Result: 58

Query: Form field: reported Inhibition of CC1CN(c2cccc3c2nc(-c2cncc(C#N)c2)n3CCNCc2ccccc2)CC(C)O1.O=C(O)C(F)(F)F (centres undefined)
Result: 0

Query: Form field: reported Inhibition of "Cc1cc(CN2CCC(C(=O)Nc3ccc(-c4nc5ccccc5[nH]4)cc3)CC2)oc1C"
Result: 0

Query: Form field: reported Inhibition of "CCCCn1c(N)c(N(Cc2ccco2)C(=O)C=Cc2cc(OC)c3c(c2)OCCO3)c(O)nc1=O"
Result: 4

Query: Form field: reported Inhibition of CC(=O)Oc1c(C2C=CCCC2)c(OC(C)=O)c2ccccc2c1OC(C)=O (centres undefined)
Result: 10

Query: Form field: reported Inhibition of "COc1ccc(Nc2nc(NCc3cccc(NS(C)(=O)=O)c3)cc(-c3ccc(OC)cc3)n2)cc1"
Result: 0

Query: Form field: reported Inhibition of "O=C(NCCN1CCCCC1)c1ccc(CNC(=O)c2ccc(O)c(-c3ccc(Cl)c(Cl)c3)c2)cc1"
Result: 3

Query: Form field: reported Inhibition of "Cc1ccnc(NC(=O)c2cc(-c3cccc([N+](=O)[O-])c3)nc3onc(C)c23)c1"
Result: 5

Query: Form field: reported Inhibition of "Cc1cc(-c2ccnc(Nc3cccc(C#N)c3)n2)cc(C)c1O"
Result: 50

Query: Form field: reported Inhibition of "CC(C)C[C@@H](NC(=O)OC(C)(C)C)C(=O)Nc1ccc(Cc2ccc(NC(=O)[C@@H](CC(C)C)NC(=O)OC(C)(C)C)cc2)cc1"
Result: 8

Query: Form field: reported Inhibition of "CCOc1c(CNCCCNc2cc(O)c3ccccc3n2)cc(Br)cc1OC"
Result: 10

* * *

Test system: Plasmodium falciparum
Measurement Protocol: GSK_TCMDC: Inhibition of Plasmodium falciparum 3D7 in whole red blood cells, using parasite LDH activity as an index of growth. Test compounds present at 2uM
Assay type: functional
Metric Name: Inhibition (%)
Report only the number, with the unit % understood.

Query: Form field: reported Inhibition of "Cc1ccc(Cc2c(N)nc3nc(N)nc(N)c3c2C)cc1.Cl"
Result: 95

Query: Form field: reported Inhibition of "O=C(/C=C/c1ccc(Cl)c(Cl)c1)N1CCC(CN2CCC(c3c[nH]c4cnccc34)CC2)CC1"
Result: 100

Query: Form field: reported Inhibition of "C(=C(c1cccs1)c1cccs1)c1ccc(CNC2CCN(Cc3ccccc3)CC2)cc1.Cl"
Result: 98

Query: Form field: reported Inhibition of "COc1ccc(CNC(=O)c2cnc3c(O)cccc3c2Nc2cccc(NC(=O)c3ccc(-c4ccccc4)cc3)c2)cc1.O=C(O)C(F)(F)F"
Result: 90

Query: Form field: reported Inhibition of Cc1nc2ccc3ccc(CNc4ccc(C(=O)CC(CCC(=O)O)C(=O)O)cc4)cc3c2c(=O)[nH]1.[Cl-].[Na+] (stereo not drawn)
Result: 95

Query: Form field: reported Inhibition of "CC(C)Cn1cc(C2CCN(CCN3CCC(CNC(=O)c4ccc(NC(=O)c5ccc(Cl)cc5)cc4)CC3)CC2)c2ccccc21"
Result: 100

Query: Form field: reported Inhibition of "O=C(Nc1ccc(Cn2ncc(N3CCCNCC3)c(Cl)c2=O)cc1)Nc1ccc(F)cc1[N+](=O)[O-]"
Result: 90

Query: Form field: reported Inhibition of "Cc1cc(=NN=Cc2ccc(F)cc2)c2ccc(F)cc2[nH]1"
Result: 99

Attribution: ChEMBL document CHEMBL1157539
